Each entry below carries its reported pIC50.
Target: Btk (Rattus norvegicus)
Sequence (Q5S255 1-660): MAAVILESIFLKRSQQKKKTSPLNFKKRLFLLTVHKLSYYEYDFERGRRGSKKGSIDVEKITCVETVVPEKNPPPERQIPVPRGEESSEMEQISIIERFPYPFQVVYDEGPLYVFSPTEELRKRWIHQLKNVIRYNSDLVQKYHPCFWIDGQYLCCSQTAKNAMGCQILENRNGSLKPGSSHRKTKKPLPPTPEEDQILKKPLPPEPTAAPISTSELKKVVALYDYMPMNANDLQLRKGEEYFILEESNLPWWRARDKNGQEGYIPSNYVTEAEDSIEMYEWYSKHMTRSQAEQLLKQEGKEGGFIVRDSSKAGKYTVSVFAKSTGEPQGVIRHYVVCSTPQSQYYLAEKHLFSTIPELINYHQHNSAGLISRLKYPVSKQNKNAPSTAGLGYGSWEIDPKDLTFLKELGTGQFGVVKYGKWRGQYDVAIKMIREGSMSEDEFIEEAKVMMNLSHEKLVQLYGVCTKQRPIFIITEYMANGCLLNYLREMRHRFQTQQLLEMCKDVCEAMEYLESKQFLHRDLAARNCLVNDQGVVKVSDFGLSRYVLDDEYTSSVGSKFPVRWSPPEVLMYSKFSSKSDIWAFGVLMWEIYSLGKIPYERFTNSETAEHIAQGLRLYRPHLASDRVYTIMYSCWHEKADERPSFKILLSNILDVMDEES
Test: Inhibition of Btk activity in blood: in vitro B cell activation assay (CD86) in rat whole blood
Details: Lewis rat whole blood diluted to 50%, anti-rat IgM + IL-4, CD86 on CD45RA positive B cells, 24 hours
Note: pIC50 values are expressed as the negative base-10 logarithm of concentration in M.

Would you please look over these solved cases?
Consider Cc1c(NC(=O)c2ccc(C3CC3)cc2)cc(F)cc1-c1ncnc2[nH]c(C3=CCN(C(=O)CO)CC3)cc12 . Its measured pIC50 is 6.38

Cc1c(NC(=O)c2ccc(C(C)(C)CO)cc2)cc(F)cc1-c1ncnc2[nH]c(C3=CCN(C(=O)N(C)C)CC3)cc12 has a reported pIC50 of 6.95

Value of pIC50 reported for the compound Cc1c(NC(=O)N2CC(OC(C)C)C2)cc(F)cc1-c1ncnc2[nH]c(C3=CCN(C(=O)N(C)C)CC3)cc12 is 6.75

Sample Cc1c(NC(=O)c2ccc3c(c2)OCC3(C)C)cc(F)cc1-c1ncnc2[nH]c(C3=CCN(C(=O)N(C)C)CC3)cc12 ; pIC50 observed: 7.14

Consider now this further compound.
Consider CN(C)C(=O)N1CC=C(c2cc3c(-c4cccc(NC(=O)c5ccc(C6CC6)cc5)c4CO)ncnc3[nH]2)CC1 . Its measured pIC50 is 7.00

---

Molecular target: full-length human recombinant BTK (Homo sapiens (Human))
Assay: Inhibition of Btk enzymatic activity (biochemical enzyme assay, Caliper)
Conditions: 30° C., 60 minutes
Method: The inhibitory activity of the present compounds against Btk was assessed in a biochemical enzyme assay. […] Kinase reactions were analyzed on a Caliper LC3000 workstation by separating phosphorylated and unphosphorylated peptides and kinase activities were calculated from the amounts of newly formed phospho-peptide. Inhibition data were calculated by comparison to control reactions without enzyme (100% inhibition) and without inhibitors (0% inhibition). […]
IC50 by entry:
Write the answer as a number in nM, unit excluded.

For orientation, consider the following solved cases.
Cc1c(NC(=O)c2ccc(C3(F)CC3)cc2)cc(F)cc1-c1ncnc2[nH]c(C3=CCN(C(=O)N(C)C)CC3)cc12 has a reported IC50 of 1

Form: compound = Cc1c(NC(=O)c2ccc(C(C)(C)C)cc2)cccc1-c1ncnc2[nH]c(C3=CCC(N(C)C)CC3)cc12 (centres unmarked) ; IC50 = 8

Item: Cc1c(NC(=O)c2ccc(C(C)(C)C)cc2)cccc1-c1ncnc2[nH]c(C3=CC[S+]([O-])CC3)cc12 (centres unmarked) | IC50: 24

Now look at this one.
Looking up CC(C)(C)c1ccc(C(=O)Nc2cccc(-c3ncnc4[nH]c(C5=CCC6(CC5)OCCO6)cc34)c2CO)cc1 , I see its IC50 listed as 24

---

Target: full-length human recombinant BTK (Homo sapiens (Human))
Experiment: Inhibition of Btk enzymatic activity (biochemical enzyme assay, Caliper)
Settings: 30° C., 60 minutes
Experimental: The inhibitory activity of the present compounds against Btk was assessed in a biochemical enzyme assay. […] Kinase reactions were analyzed on a Caliper LC3000 workstation by separating phosphorylated and unphosphorylated peptides and kinase activities were calculated from the amounts of newly formed phospho-peptide. Inhibition data were calculated by comparison to control reactions without enzyme (100% inhibition) and without inhibitors (0% inhibition). […]
value type: pIC50
As a rule, pIC50 stands for the negative log10 of the concentration, concentration in M.

Recorded results for 5 compounds are shown here.
Measured on full-length human recombinant BTK (Homo sapiens (Human)), Cc1c(NC(=O)c2ccc(C(C)(C)CO)cc2)cc(F)cc1-c1ncnc2[nH]c(C3=CCN(C(=O)N(C)C)CC3)cc12 has a documented pIC50 of 8.70

Measured on full-length human recombinant BTK (Homo sapiens (Human)), COCC(C)(C)c1ccc(C(=O)Nc2cc(F)cc(-c3ncnc4[nH]c(C5=CCN(C(=O)N(C)C)CC5)cc34)c2C)cc1 has a documented pIC50 of 8.40

Entry Cc1c(NC(=O)c2ccc(S(F)(F)(F)(F)F)cc2)cc(F)cc1-c1ncnc2[nH]c(C3=CCN(C(=O)N(C)C)CC3)cc12 ; assay system full-length human recombinant BTK (Homo sapiens (Human)); pIC50 recorded at 8.30

Field pIC50 (full-length human recombinant BTK (Homo sapiens (Human))), entry Cc1c(NC(=O)N2Cc3ccc(F)cc3C2)cc(F)cc1-c1ncnc2[nH]c(C3=CCN(C(=O)N(C)C)CC3)cc12 : 8.52

Considering CC(C)(C)c1ccc(C(=O)Nc2cccc(-c3ncnc4[nH]c(C5=CCC(O)CC5)cc34)c2CO)cc1 (centres unmarked) , its pIC50 with full-length human recombinant BTK (Homo sapiens (Human)) was recorded as 8.40

New cases:
GET /values?item= CN(C)C(=O)N1CC=C(c2cc3c(-c4cccc(N5CCc6cc(C(C)(C)O)ccc6C5=O)c4CO)ncnc3[nH]2)CC1 &system= full-length human recombinant BTK (Homo sapiens (Human)) returns pIC50: 8.70

The measured pIC50 that CN(C)C(=O)N1CC=C(c2cc3c(-c4cccc(NC(=O)c5ccc(C(C)(C)C)cc5)c4CO)ncnc3[nH]2)CC1 showed for full-length human recombinant BTK (Homo sapiens (Human)) is 7.59

Cc1c(NC(=O)N2CC(OC(C)(C)C)C2)cc(F)cc1-c1ncnc2[nH]c(C3=CCN(C(=O)N(C)C)CC3)cc12 tested on full-length human recombinant BTK (Homo sapiens (Human)) gave pIC50: 8.15

---

IC50 reference
Target: Btk (Homo sapiens (Human), UniProt Q06187)
Sequence (Q06187 whole entry): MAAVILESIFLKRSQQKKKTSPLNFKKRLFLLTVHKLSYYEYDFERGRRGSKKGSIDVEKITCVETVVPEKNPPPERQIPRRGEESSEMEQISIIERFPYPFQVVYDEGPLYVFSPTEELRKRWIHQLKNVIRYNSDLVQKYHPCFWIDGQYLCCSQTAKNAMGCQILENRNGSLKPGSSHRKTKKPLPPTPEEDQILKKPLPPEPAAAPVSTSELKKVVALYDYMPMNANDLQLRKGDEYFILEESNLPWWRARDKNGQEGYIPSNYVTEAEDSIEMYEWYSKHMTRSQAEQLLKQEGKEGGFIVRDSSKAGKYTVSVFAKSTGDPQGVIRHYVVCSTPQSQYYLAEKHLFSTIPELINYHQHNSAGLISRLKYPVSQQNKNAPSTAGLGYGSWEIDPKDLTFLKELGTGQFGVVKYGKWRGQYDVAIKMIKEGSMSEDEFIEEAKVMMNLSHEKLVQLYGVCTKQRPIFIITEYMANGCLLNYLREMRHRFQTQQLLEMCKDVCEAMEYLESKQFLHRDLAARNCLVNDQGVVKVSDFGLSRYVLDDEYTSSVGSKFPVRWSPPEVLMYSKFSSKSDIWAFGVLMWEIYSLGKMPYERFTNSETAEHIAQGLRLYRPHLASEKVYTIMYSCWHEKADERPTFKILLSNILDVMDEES
Assay: Inhibition of cellular Btk activity: Btk-dependent FcG receptor-induced IL-8 secretion in differentiated THP1 cells
Assay type: cell-based
Conditions: IgG-stimulated IL-8 secretion, 24 hours
State just the number; it will be interpreted in nM.

Recorded IC50 (compound CN(C)C(=O)N1CC=C(c2cc3c(-c4cccc(NC(=O)c5ccc(C(C)(C)O)cc5F)c4CO)ncnc3[nH]2)CC1 ): 69

Data point: CN(C)C(=O)N1CC=C(c2cc3c(-c4ccc(F)c(NC(=O)N5CC(OC(C)(C)C)C5)c4)ncnc3[nH]2)CC1 ; IC50 = 71

Please fill in: IC50 reported for CC(C)(C)c1ccc(C(=O)Nc2cccc(-c3ncnc4[nH]c(C5=CCN(C(=O)CF)CC5)cc34)c2CO)cc1 = 20

Here is another compound to look at.
The compound identified as Cc1c(NC(=O)c2cc3c(s2)CCC(C)C3)cc(F)cc1-c1ncnc2[nH]c(C3=CCN(C(=O)N(C)C)CC3)cc12 (stereo not shown) registered its IC50 at 27

---

Target: full-length human recombinant BTK (Homo sapiens (Human), UniProt Q06187)
Sequence (Q06187 whole entry): as the sequence (Q06187 whole entry) above
Test: Inhibition of Btk enzymatic activity (biochemical enzyme assay, Caliper)
Conditions: 30° C., 60 minutes
pIC50: −log10 of the molar value.
Rule: condition met for pIC50 not less than 8, condition not met for anything less.

Problem: // inclusive: pIC50 at least 8? input: CN(C)C(=O)N1CC=C(c2cc3c(-c4cccc(NC(=O)c5ccc(C(C)(C)O)cc5F)c4CO)ncnc3[nH]2)CC1
Solution: condition met

Problem: Is it the case that Cc1c(NC(=O)c2ccc(S(F)(F)(F)(F)F)cc2)cc(F)cc1-c1ncnc2[nH]c(C3=CCN(C(=O)CO)CC3)cc12 has pIC50 reaching or exceeding 8?
Solution: condition met

Problem: Record Cc1c(NC(=O)c2ccc(C3(C(F)(F)F)CC3)cc2)cc(F)cc1-c1ncnc2[nH]c(C3=CCN(C(=O)N(C)C)CC3)cc12 ; criterion: pIC50 no lower than 8. Met?
Solution: condition met

Problem: # check: pIC50 of Cc1c(NC(=O)c2ccc3c(C)c[nH]c3c2)cc(F)cc1-c1ncnc2[nH]c(C3=CCN(C(=O)N(C)C)CC3)cc12 is greater than or equal to 8
Solution: condition met

Problem: Test whether the compound Cc1c(NC(=O)c2ccc(N(C)C(C)C)cc2)cc(F)cc1-c1ncnc2[nH]c(C3=CCN(C(=O)N(C)C)CC3)cc12 records pIC50 of 8 or higher.
Solution: condition met

Problem: Does the reported pIC50 for CC(=O)OCC(=O)N1CC=C(c2cc3c(-c4cc(F)cc(NC(=O)c5ccc(C6CC6)cc5)c4C)ncnc3[nH]2)CC1 fall at or above the 8 mark?
Solution: condition met

Problem: Could you verify whether the entry Cc1c(NC(=O)c2ccc(C(C)(C)C)cc2)cc(F)cc1-c1ncnc2[nH]c(C3=CCN(S(C)(=O)=O)CC3)cc12 shows pIC50 of no less than 8?
Solution: condition not met

Problem: API: above_or_equal(metric=pIC50, cutoff=8) for item Cc1c(NC(=O)c2ccc(C(C)(C)C)cc2)cc(F)cc1-c1ncnc2[nH]c(C3=CCN(S(=O)(=O)N(C)C)CC3)cc12
Solution: condition not met

---

Biological target: full-length human recombinant BTK (Homo sapiens (Human))
Test: Inhibition of Btk enzymatic activity (biochemical enzyme assay, Caliper)
Details: 30° C., 60 minutes
value type: pIC50
pIC50 here: minus log base 10 of the concentration, concentration in moles per litre.

The value of pIC50 measured for the compound Cc1c(NC(=O)c2ccc(C(C)(C)C)cc2)cccc1-c1ncnc2[nH]c(C3=CCSCC3)cc12 turned out to be 7.33

New cases:
pIC50 reading for Cc1c(NC(=O)c2ccc(C3CC3)cc2)cc(F)cc1-c1ncnc2[nH]c(C3=CCN(C(=O)N4CCCC4)CC3)cc12 : 8.22

Given item Cc1c(NC(=O)c2ccc(C3CC3)cc2)cc(F)cc1-c1ncnc2[nH]c(C3=CCN(C(=O)N(C)C)CC3)cc12 , the value recorded as its pIC50 is 7.89

Reported pIC50 ( Cc1c(NC(=O)N2CC(OC(C)C)C2)cc(F)cc1-c1ncnc2[nH]c(C3=CCN(C(=O)N(C)C)CC3)cc12 ) = 7.80

According to the records, this compound Cc1c(NC(=O)c2ccc(C(C)(C)C)cc2)cccc1-c1ncnc2[nH]c(C3=CCC(O)CC3)cc12 (stereo not drawn) displays pIC50 of 7.92

Data point: Cc1c(NC(=O)c2ccc(C(C)(C)C)cc2)cc(F)cc1-c1ncnc2[nH]c(C3=CC[S+]([O-])CC3)cc12 (stereo not drawn) ; pIC50 = 8.70

Per the records, this compound ( Cc1c(NC(=O)N2CC(OC(C(F)(F)F)C(F)(F)F)C2)cc(F)cc1-c1ncnc2[nH]c(C3=CCN(C(=O)N(C)C)CC3)cc12 ) has pIC50 equal to 8.10

pIC50 in this record for Cc1c(-c2ncnc3[nH]c(C4=CCN(C(=O)N(C)C)CC4)cc23)ccc(F)c1NC(=O)N1CC(OC(C)(C)C)C1 : 8.70
